Every entry's value here was drawn from BigSolDB 2.1.

# test-context: in isopropanol, 288.15 K
measurement-name: solubility (mole fraction)
Answers are plain numbers.

solubility (mole fraction) recorded for this compound, Nc1cncc(Cl)n1 , is 0.00608

###

# test-context: in acetonitrile, 303.15 K
measurement-name: solubility (mole fraction)
Give bare numbers.

solubility (mole fraction) recorded for this compound, Nc1cncc(Cl)n1 , is 0.0248

###

# test-context: in ethylene glycol, 278.15 K
measurement-name: solubility (mole fraction)
Numbers only.

solubility (mole fraction) recorded for this compound, Nc1cncc(Cl)n1 , is 0.000717

###

# test-context: in n-propanol, 288.15 K
measurement-name: solubility (mole fraction)

solubility (mole fraction) recorded for this molecule, Nc1cncc(Cl)n1 , is 0.00709
